FYI, the data here is from PubChem BioAssay (NCI).

Test system: UACC-257 melanoma
TEST_METHOD_NOTES: NCI tumour cell line growth inhibition, 48 h
ENDPOINT_NAME: TGI

Worked examples, 6 compounds total:
>  <COMPOUND>
O=C(O)C(Cc1cc(I)c(O)c(I)c1)C1CCCCC1 (stereo not given)

>  <TGI>
> 100 µM

$$$$
>  <COMPOUND>
COCN1C(=O)[C@@H]2CCCN2C(=O)c2cc(OC)c(Cc3ccccc3)cc21

>  <TGI>
> 100 µM

$$$$
>  <COMPOUND>
Sc1cccc2cccnc12

>  <TGI>
12.3 µM

$$$$
>  <COMPOUND>
Cc1ccc(S(=O)(=O)n2cc(/C=C/C#N)c(-c3cn(S(=O)(=O)c4ccc(C)cc4)cc3-c3cn(S(=O)(=O)c4ccc(C)cc4)cc3/C=C/C#N)c2)cc1

>  <TGI>
> 100 µM

$$$$
>  <COMPOUND>
Cc1nc2ccc(F)cc2c2c1CCS2

>  <TGI>
> 100 µM

$$$$
>  <COMPOUND>
COC(=O)NC(=O)NC(Cc1ccccc1)NC(=O)OCc1ccccc1 (stereo not given)

>  <TGI>
> 100 µM

$$$$

Q: I would be grateful if you could share the reported TGI for N=C(N)SCc1ccc2c(c1)S(=O)(=O)c1ccccc1O2 .
A: 35.2 µM

Q: I would be grateful if you could share the reported TGI for CC(C)(C)[Si](C)(C)OCC1OC(n2cnc3c(N)ncnc32)C2OC(=S)OC12 (stereo not given) .
A: > 100 µM

###

System: LOX IMVI melanoma
TEST_METHOD_NOTES: NCI tumour cell line growth inhibition, 48 h
ENDPOINT_NAME: TGI

>  <COMPOUND>
CC(C#N)(c1ccccc1)N(CCc1ccccc1)C(=O)Oc1ccccc1 (stereo not drawn)

>  <TGI>
> 100 µM

$$$$
>  <COMPOUND>
O=C(O)C(Cc1cc(I)c(O)c(I)c1)C1CCCCC1 (stereo not drawn)

>  <TGI>
> 100 µM

$$$$
>  <COMPOUND>
CC1(C)CNC(=O)C2(CCCO2)CNC(C)(C)CNC(=O)C2(CCCO2)CN1 (stereo not drawn)

>  <TGI>
> 10 µM

$$$$
>  <COMPOUND>
Sc1cccc2cccnc12

>  <TGI>
11.1 µM

$$$$
>  <COMPOUND>
COc1cc(CN=c2nc(N(C)C)ss2)cc(OC)c1OC

>  <TGI>
4.4 µM

$$$$
>  <COMPOUND>
O=C(O)/C=C/c1ccc(O)c(O)c1

>  <TGI>
> 100 µM

$$$$

Q: I would be grateful if you could share the reported TGI for Cc1nc2ccc(F)cc2c2c1CCS2 .
A: > 100 µM

Q: I would be grateful if you could share the reported TGI for COc1ccc2c(O)c(Oc3ccc(Cl)cc3)c(=O)oc2c1 .
A: > 100 µM

Q: I would be grateful if you could share the reported TGI for CC(C)=CCc1cc2c(cc1O)C1=C(C(=O)C3=C(NCCS3(=O)=O)C1=O)C(C=C(C)C)O2 (stereo not drawn) .
A: > 16.7 µM

Q: I would be grateful if you could share the reported TGI for C=CC1(C)CCC2C(=CCC3C2(C)CC(O)C(O)C3(C)COC2OC(CO)C(O)C(O)C2O)C1 (stereo not drawn) .
A: > 100 µM

Q: I would be grateful if you could share the reported TGI for CCC(C)N1CN(c2ccccc2)C2(CCN(CC3COc4ccccc4O3)CC2)C1=O (stereo not drawn) .
A: 44.2 µM

###

Reported values of TGI for individual entries
System: ACHN renal
TEST_METHOD_NOTES: NCI tumour cell line growth inhibition, 48 h

>  <MOLECULE>
O=C(O)CN1CCSc2ccccc2CN(CC(=O)O)CCSc2ccccc2C1

>  <OBSERVED_RESULT>
> 100 µM

$$$$
>  <MOLECULE>
CC(=O)N1C/C(=C\c2ccccc2)C(=O)/C(=C/c2ccccc2)C1

>  <OBSERVED_RESULT>
32.4 µM

$$$$
>  <MOLECULE>
CC(=O)OCC1OC(N2C(=O)[C@@H](Oc3ccccc3)[C@H]2/C=C/c2ccccc2)C(OC(C)=O)C(OC(C)=O)C1OC(C)=O (some centres undefined)

>  <OBSERVED_RESULT>
> 100 µM

$$$$
>  <MOLECULE>
Cc1ccc(-c2n[nH]c(=O)n2/N=C\c2ccccc2O)cc1

>  <OBSERVED_RESULT>
> 100 µM

$$$$
>  <MOLECULE>
O=C(O)/C=C\C(=O)Nc1ccc2c(c1)-c1ccccc1C2

>  <OBSERVED_RESULT>
> 100 µM

$$$$

Q: I would be grateful if you could share the reported TGI for CNC(=O)Oc1cc(C(C)C)ccc1Sc1ccc(C(C)C)cc1OC(=O)NC .
A: 24.4 µM

Q: I would be grateful if you could share the reported TGI for C=C1CC[C@](C)(O)[C@@]2(C)CC[C@H]3C(=C(C)C)C(=O)C[C@]3(C)C[C@H]12 .
A: > 50 µM

Q: I would be grateful if you could share the reported TGI for NC1=C(O)c2cccc3cccc(c23)C1=O .
A: > 100 µM

Q: I would be grateful if you could share the reported TGI for Cc1cc(I)cc(CNCCN(C)C)c1O .
A: > 100 µM

Q: I would be grateful if you could share the reported TGI for CC(C#N)(c1ccccc1)N(CCc1ccccc1)C(=O)Oc1ccccc1 (centres undefined) .
A: > 100 µM

Q: I would be grateful if you could share the reported TGI for CC1(OCc2ccccc2)C(=O)N2C1NCC2(C)C (centres undefined) .
A: > 100 µM

###

Test system: COLO 205 colon
TEST_METHOD_NOTES: NCI tumour cell line growth inhibition, 48 h; in the data active = GI50 below about 0.43 µM; inactive = the rest
Field 'call' accepts active, inactive

Example entries and their recorded answers appear below.
>  <RECORD_SMILES>
Nc1c(C(=O)Nc2cccc(Cl)c2)sc2nc3c(cc12)C(=O)CCC3

>  <ASSIGNED_CATEGORY>
active

$$$$
>  <RECORD_SMILES>
O=c1[nH]c2ccccc2n1C1CCNCC1

>  <ASSIGNED_CATEGORY>
inactive

$$$$

Q: Assay result, entry O=C([CH-]C(=O)c1ccccc1)c1ccccc1.O=C([CH-]C(=O)c1ccccc1)c1ccccc1.O=C([CH-]C(=O)c1ccccc1)c1ccccc1.[Ga+3] — outcome?
A: inactive

Q: Assay result, entry N#CCCNc1nonc1-c1nc2ccccc2n1CC(=O)c1ccc(N)cc1 — outcome?
A: active

Q: Assay result, entry CC1=C(CCCOC(=O)[C@H](N)CC(C)C)C2=C(C)C3(CC3)[C@@](C)(O)C(=O)C2=C1 — outcome?
A: inactive

###

Tested on: A498 renal
TEST_METHOD_NOTES: NCI tumour cell line growth inhibition, 48 h; in the data active means GI50 below about 0.43 µM; inactive means the rest
Field 'call' accepts true (1) = active, false (0) = inactive

>  <RECORD_SMILES>
CCC(=C(c1ccc(OCCN2CCCCC2)cc1)c1ccc(OCCN2CCCCC2)cc1)c1ccc(Cl)cc1

>  <ASSIGNED_CATEGORY>
false (0)

$$$$
>  <RECORD_SMILES>
Cc1cccc2cc(/C=C/C(=O)/C=C/c3ccc(Cl)cc3)c(=O)[nH]c12

>  <ASSIGNED_CATEGORY>
false (0)

$$$$
>  <RECORD_SMILES>
CN1CCN(Cc2ccc(NC(=O)c3cncc(C#Cc4cnc(N)c5ncccc45)c3)cc2C(F)(F)F)CC1

>  <ASSIGNED_CATEGORY>
true (1)

$$$$
>  <RECORD_SMILES>
COc1cccc2c1nc(C(F)F)n2-c1nc(-c2ccc(NS(=O)(=O)CCN(C)C)cc2)nc(N2CCOCC2)n1

>  <ASSIGNED_CATEGORY>
true (1)

$$$$
>  <RECORD_SMILES>
O=C([CH-]C(=O)c1ccccc1)c1ccccc1.O=C([CH-]C(=O)c1ccccc1)c1ccccc1.O=C([CH-]C(=O)c1ccccc1)c1ccccc1.[Ga+3]

>  <ASSIGNED_CATEGORY>
false (0)

$$$$

Q: Assay result, entry COC(=O)N[C@H]1CCc2cc(OC)c(OC)c(OC)c2-c2ccc(SC)c(=O)cc21 — outcome?
A: true (1)

Q: Assay result, entry ClC1=C(Cl)C(Cl)(C2(Cl)C(Cl)=C(Cl)C(Cl)=C2Cl)C(Cl)=C1Cl — outcome?
A: false (0)

Q: Assay result, entry CCOc1ccc(N(C)c2ccc(/C=C/C3=[N+](C)c4ccccc4C3(C)C)cc2)cc1 — outcome?
A: true (1)

Q: Assay result, entry Cc1cc(I)cc(CNCCN(C)C)c1O — outcome?
A: false (0)

###

Test system: NCI/ADR-RES ovarian
TEST_METHOD_NOTES: NCI tumour cell line growth inhibition, 48 h
ENDPOINT_NAME: TGI

Worked examples, 3 compounds total:
>  <COMPOUND>
COc1ccc(N2C(=O)c3cc([N+](=O)[O-])cnc3S2(=O)=O)cc1

>  <TGI>
> 100 µM

$$$$
>  <COMPOUND>
COCN1C(=O)[C@@H]2CCCN2C(=O)c2cc(OC)c(Cc3ccccc3)cc21

>  <TGI>
> 100 µM

$$$$
>  <COMPOUND>
O=C1NN2CC(c3ccccc3)=NN=C2c2ccccc21

>  <TGI>
42.7 µM

$$$$

Next compound, please.
Q: I would be grateful if you could share the reported TGI for O=C1C=CC2(C=C1)O[C@H](COCc1ccccc1)[C@@H](COCc1ccccc1)O2 .
A: 3.71 µM
